The reported numbers originate from PubChem BioAssay (NCI).

Tested on: HCT-15 colon
Experiment: NCI-60 one-dose screen, 48 h (100 = growth as untreated, 0 = no growth, -100 = all killed)
Conditions: 10 µM
About 83,000 compounds went through this panel and 20% of them were active in at least one assay; those are over-represented in the sample as a whole.
Mark 0.0 for growth values under 30%, and 1.0 for everything at or above.

Please check the record CNc1ccc(CSc2ccc(C)cc2)cc1 and state if its growth is at or above 30%.
1.0

Please check the record O=C(C[P+](c1ccccc1)(c1ccccc1)c1ccccc1)C[P+](c1ccccc1)(c1ccccc1)c1ccccc1 and state if its growth is at or above 30%.
0.0

Please check the record N=c1c2c(-c3ccccc3)c(-c3ccccc3)n(Cc3ccccc3)c2ncn1CCCO and state if its growth is at or above 30%.
0.0

Please check the record C=C1c2c(C)nn(-c3ccc(OC)cc3)c2N(C)C23C[C@@H]1C1(C)c4c(C)nn(-c5ccc(OC)cc5)c4N(C)C(C)(C[C@H]12)C3 (some centres undefined) and state if its growth is at or above 30%.
0.0

Please check the record COc1ccc2c(c1)sc1nc(-c3ccccc3)c(-c3ccc(O)c(OC)c3)n12 and state if its growth is at or above 30%.
1.0

Please check the record COc1ccc(C(=O)/C=C/c2cc(-c3cc(OC)c(OC)c(OC)c3)n[nH]2)cc1 and state if its growth is at or above 30%.
0.0

Please check the record COc1ccc(-c2nc3ncccn3c2-c2nnc(-c3ccsc3C)o2)cc1 and state if its growth is at or above 30%.
1.0

Please check the record O=C1C(=O)c2ccccc2C(O)=C1CCCc1ccc(C2CCCCCC2)cc1 and state if its growth is at or above 30%.
0.0

Please check the record COc1ccc2c(c1)C(=O)c1c-2c(OCCN2CCCCC2)nc2ccc(OC)cc12 and state if its growth is at or above 30%.
0.0

Please check the record N#Cc1ncc(Br)c(NC2CCCCCC2)n1 and state if its growth is at or above 30%.
1.0

Please check the record C(CCCC1=NCCO1)CCCC1=NCCO1 and state if its growth is at or above 30%.
1.0

Please check the record Cc1ccc(CC#N)cc1C and state if its growth is at or above 30%.
1.0

Please check the record Cc1ccc(C(=O)N2C/C(=C/c3ccccc3)C(=O)/C(=C/c3ccccc3)C2)cc1 and state if its growth is at or above 30%.
0.0

Please check the record N#CCCN1C/C(=C/c2ccc(Cl)cc2)C(=O)/C(=C/c2ccc(Cl)cc2)C1 and state if its growth is at or above 30%.
0.0

---

Test system: HS 578T breast
Test: NCI-60 one-dose screen, 48 h
Conditions: 10 µM
The panel holds about 83,000 compounds, 20% with a hit somewhere; the sample as a whole holds those more often. Active and inactive are the calls of the source. Rule for the calls: active = growth percent below 10; inactive = the rest.
Output constraint: value belongs to 1 (active), -1 (inactive)

Assay result, entry CCN(CC)CCSCCCNc1c2ccc(Cl)cc2nc2ccc(OC)cc12 — outcome?
1

Assay result, entry O=C1/C(=C/c2ccc([N+](=O)[O-])o2)Oc2ccccc21 — outcome?
-1

Assay result, entry Nc1nc(Nc2ccccc2)n[nH]1 — outcome?
-1

Assay result, entry COc1cc2nc(Nc3cccc(C(=O)O)c3)nc(N)c2cc1OC — outcome?
-1

Assay result, entry COc1ccc2c(c1)C(=O)c1c-2c(OCCN2CCCCC2)nc2ccc(OC)cc12 — outcome?
-1

Assay result, entry COc1ccc(-c2nsc3c2NC(=O)CC3c2ccc(F)cc2)cc1 (stereo unspecified) — outcome?
-1

Assay result, entry O=C1c2ccc3c4c(ccc(c24)C(=O)N1CCNCc1ccccc1)C(=O)N(CCNCc1ccccc1)C3=O — outcome?
-1

Assay result, entry COc1cc(Cl)cc(-c2nn(-c3cccc(NC(=O)c4ccc(N5CCOCC5)c(C(F)(F)F)c4)c3)cc2-c2ccncc2)c1 — outcome?
-1

Assay result, entry FC(F)(F)c1ccc(-c2cnc(Cl)nc2N2CCC3(CC2)OCCO3)cc1 — outcome?
-1

Assay result, entry COC(=O)C1=NNC(=S)N(c2cc(C)[nH]n2)C(=O)C1 — outcome?
-1

Assay result, entry O=C(CCCCC[P+](c1ccccc1)(c1ccccc1)c1ccccc1)NC(COC(=O)C(Cl)Cl)(COC(=O)C(Cl)Cl)COC(=O)C(Cl)Cl — outcome?
-1

Assay result, entry NC(=O)CC1(c2ccccc2)CCCCC1 — outcome?
-1

Assay result, entry O=C(O)CC(Cl)C(Cl)CC(=O)O (stereo unspecified) — outcome?
-1

Assay result, entry c1ccc2c(-c3nc(N4CCOCC4)c4c5c(sc4n3)CCCCCC5)cccc2c1 — outcome?
-1

Assay result, entry COc1ccc(-c2nn(-c3cccc(NC(=O)c4ccc5c(c4)OCCO5)c3)cc2-c2ccncc2)cc1Cl — outcome?
1

Assay result, entry CSc1nc(=O)n(Cc2ccc(F)cc2)c(=O)n1Cc1ccc(C)cc1 — outcome?
-1

Assay result, entry CC(C)(Cl)CCC1=C(Cl)C(=O)c2ccccc2C1=O — outcome?
-1

Assay result, entry O=C(O)CCCCSc1ncnc2nc[nH]c12 — outcome?
-1

Assay result, entry CC/C(=N\N=C(/CC)c1ccc(Br)cc1)c1ccc(Br)cc1 — outcome?
-1

Assay result, entry COc1cc(-c2cc(/C=C/C(=O)c3ccc(Cl)c(Cl)c3)[nH]n2)cc(OC)c1OC — outcome?
-1

Assay result, entry Nc1nc(N)c2c(ccc3nccc32)[nH]1 — outcome?
-1

Assay result, entry Fc1ccc2nc(-c3nc(-c4ccccc4)n4ccccc34)[nH]c2c1 — outcome?
1

Assay result, entry Clc1nc(Cl)c2c(ncn2C/C=C\Cn2cnc3c(Cl)nc(Cl)nc32)n1 — outcome?
1

Assay result, entry CN(C)C(=S)N/N=C\C=N/NC(=S)N(C)C — outcome?
-1

Assay result, entry Cc1ccc2oc3nc(C)c(C(=O)NCc4ccccc4)cc3c(=O)c2c1 — outcome?
-1

Assay result, entry O=C(Nc1ccc(OS(=O)(=O)c2ccccc2)cc1)C12CC3CC(CC(C3)C1)C2 — outcome?
-1

Assay result, entry CC1(C)N=C(N)N=C(N)N1c1ccc(CCc2ccccc2)c(Cl)c1 — outcome?
-1

Assay result, entry COc1ccc(Nc2nc3ccc(NC(=O)NC4CCCCC4)cc3[nH]c2=O)cc1 — outcome?
-1

Assay result, entry COc1ccc(/C=C/C(=O)Nc2ccc(-c3nc4ccc(OC)cc4s3)cc2)cc1 — outcome?
-1

Assay result, entry CCCCN(CCCC)CCCCCCCCC(O)c1cc2ccccc2c2ccccc12 (stereo unspecified) — outcome?
-1

Assay result, entry O=[N+]([O-])c1ccc(Oc2cccnc2)c([N+](=O)[O-])c1 — outcome?
-1
